# EXPERIMENT NOTES: Half life in rat at 0.5 mg/kg, iv
# Assay type: ADME, organism-based
# Parameters: dose 0.5 mg/kg, route intravenous
# TEST PARAMETERS: in vivo
ASSAY METRIC: half-life (h)
Numbers only, in h.

Field half-life (entry Cc1nn(-c2cccc(NC(=O)[C@H]3C[C@@H]3c3ccccc3)c2)c(C)c1CC(=O)O ) reads 1.3

###

# TARGET ENTITY: Prostaglandin D2 receptor 2 (Homo sapiens, UniProt Q9Y5Y4)
# Sequence (Q9Y5Y4 whole entry): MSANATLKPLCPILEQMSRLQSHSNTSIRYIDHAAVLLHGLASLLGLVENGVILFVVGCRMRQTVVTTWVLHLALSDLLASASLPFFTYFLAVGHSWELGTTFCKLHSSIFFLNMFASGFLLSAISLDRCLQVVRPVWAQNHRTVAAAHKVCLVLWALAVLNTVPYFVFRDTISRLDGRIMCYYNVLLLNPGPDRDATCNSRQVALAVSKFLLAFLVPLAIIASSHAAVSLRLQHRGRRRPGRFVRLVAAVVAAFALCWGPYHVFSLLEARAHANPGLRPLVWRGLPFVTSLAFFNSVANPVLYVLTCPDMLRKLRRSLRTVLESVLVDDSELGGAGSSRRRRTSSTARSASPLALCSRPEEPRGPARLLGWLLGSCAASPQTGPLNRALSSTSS
# EXPERIMENT NOTES: Antagonist activity at CRTh2 receptor (unknown origin) overexpressed in CHOK1 cell membranes assessed as inhibition of [35S]-GTPgammaS binding preincubated for 1 hr followed by 50 nM PGD2 and 0.1 nM [35S]-GTPgammaS addition measured after 2 hrs by liquid scintillation counting analysis
# Type: functional, CHO-K1
# TEST PARAMETERS: read-out: IC50
What log10(IC50) was measured for each of the following?
A difference of one corresponds to tenfold IC50; all values are log10 with IC50 in µM.

COMPOUND: Cc1c(CC(=O)O)c(-c2ccncc2)nn1C(c1ccc(F)cc1)c1ccc(F)cc1
TARGET ENTITY: Prostaglandin D2 receptor 2 (Homo sapiens, UniProt Q9Y5Y4)
log10(IC50): -1.34
//
COMPOUND: Cc1c(CC(=O)O)c(-c2ccccc2)nn1Cc1ccc(F)cc1S(=O)(=O)N1CCNCC1
TARGET ENTITY: Prostaglandin D2 receptor 2 (Homo sapiens, UniProt Q9Y5Y4)
log10(IC50): 0.70
//
COMPOUND: Cc1c(CC(=O)O)c(-c2ccnc(F)c2)nn1C(c1ccc(F)cc1)c1ccc(F)cc1
TARGET ENTITY: Prostaglandin D2 receptor 2 (Homo sapiens, UniProt Q9Y5Y4)
log10(IC50): -0.51
//
COMPOUND: Cc1c(CC(=O)O)c(-c2ccccc2)nn1Cc1ccccc1S(=O)(=O)N(C)C
TARGET ENTITY: Prostaglandin D2 receptor 2 (Homo sapiens, UniProt Q9Y5Y4)
log10(IC50): -0.07
//
COMPOUND: Cc1c(CC(=O)O)c(-c2ccccc2)nn1Cc1ccccc1-c1ccccc1
TARGET ENTITY: Prostaglandin D2 receptor 2 (Homo sapiens, UniProt Q9Y5Y4)
log10(IC50): 0.70
//
COMPOUND: COc1c(CC(=O)O)c(C)nn1-c1cccc(NC(=O)[C@H]2C[C@@H]2c2ccccc2)c1
TARGET ENTITY: Prostaglandin D2 receptor 2 (Homo sapiens, UniProt Q9Y5Y4)
log10(IC50): 0.20
//
COMPOUND: Cc1nn(-c2cccc(NC(=O)[C@H]3C[C@@H]3c3ccccc3)c2)c(C)c1CC(=O)O
TARGET ENTITY: Prostaglandin D2 receptor 2 (Homo sapiens, UniProt Q9Y5Y4)
log10(IC50): -0.64
//
COMPOUND: Cc1c(Cc2ccccc2S(=O)(=O)c2ccccc2)c2cc(F)ccc2n1CC(=O)O
TARGET ENTITY: Prostaglandin D2 receptor 2 (Homo sapiens, UniProt Q9Y5Y4)
log10(IC50): -1.80

Would you be so kind as to report log10(IC50) for each listed record?
1. Cc1c(CC(=O)O)c(-c2ccccc2)nn1Cc1ccccc1S(=O)(=O)N1CCOCC1
2. Cc1c(CC(=O)O)c(-c2ccccc2)nn1Cc1ccccc1Cc1ccccc1
3. O=C(O)Cc1cn(C(c2ccc(F)cc2)c2ccc(F)cc2)nc1-c1ccncc1
4. Cc1c(CC(=O)O)c(-c2ccccc2)nn1Cc1ccc2ccccc2n1
5. Cc1c(CC(=O)O)c(-c2ccccc2)nn1C(C)c1ccccc1S(=O)(=O)c1ccccc1 (configuration not stated)
6. Cc1c(CC(=O)O)c(-c2ccncc2)nn1Cc1ccc(F)cc1
7. Cc1c(CC(=O)O)c(-c2ccccc2)nn1C(c1ccc(F)cc1)c1ccc(F)cc1

1: -1.05; 2: -1.00; 3: -0.54; 4: -0.06; 5: 0.46; 6: 0.28; 7: 0.04

Go through the list and state log10(IC50) for each entry.
1. Cc1nn(Cc2ccc(S(C)(=O)=O)cc2)c(C)c1CC(=O)O
2. Cc1c(CC(=O)O)c(-c2ccncc2)nn1Cc1ccccc1S(=O)(=O)c1ccccc1
3. Cc1c(CC(=O)O)c(-c2ccccc2)nn1Cc1ccccc1Oc1ccccc1
4. Cc1c(CC(=O)O)c(-c2ccccc2)nn1Cc1ccccc1S(=O)(=O)c1ccccc1
5. Cc1c(CC(=O)O)c(-c2ccccc2)nn1Cc1ccccc1C(=O)c1ccccc1
6. Cc1c(CC(=O)O)c(-c2ccccc2)nn1S(=O)(=O)c1ccc(Cl)c(Cl)c1

1. 0.70
2. -2.40
3. 0.30
4. -2.15
5. 0.15
6. 0.20

###

Give Papp A→B for every item shown.
# EXPERIMENT NOTES: Apparent permeability from apical to basolateral side in human Caco2 cells
# Type: ADME, cell-based
# TEST PARAMETERS: Caco-2
One number for each entry, in ×10⁻⁶ cm/s.

ENTRY SMILES: Cc1nn(-c2cccc(NC(=O)[C@H]3C[C@@H]3c3ccccc3)c2)c(C)c1CC(=O)O
REPORTED: 3

// Cc1c(CC(=O)O)c(-c2ccccc2)nn1Cc1ccccc1S(=O)(=O)c1ccccc1 : Papp A→B value = 13

###

# TARGET ENTITY: Prostaglandin D2 receptor 2 (Homo sapiens)
# EXPERIMENT NOTES: Antagonist activity at CRTh2 receptor (unknown origin) overexpressed in CHOK1 cell membranes assessed as inhibition of [35S]-GTPgammaS binding preincubated for 1 hr followed by 50 nM PGD2 and 0.1 nM [35S]-GTPgammaS addition measured after 2 hrs by liquid scintillation counting analysis
# Format: functional, CHO-K1
# TEST PARAMETERS: read-out: IC50
Assignment: determine reported pIC50 for the given molecules.
One number for each entry, as −log10 of the molar value.

Some entries whose results are on file:
MOLECULE: Cc1c(CC(=O)O)c(-c2ccccc2)nn1-c1ccnc2ccccc12
pIC50: 5.30
//
MOLECULE: Cc1c(CC(=O)O)c(-c2ccccc2)nn1C(c1ccc(F)cc1)c1ccc(S(C)(=O)=O)cc1 (stereo unspecified)
pIC50: 5.30
//
MOLECULE: Cc1c(CC(=O)O)c(-c2ccccc2)nn1Cc1ccccc1CS(=O)(=O)c1ccccc1
pIC50: 6.31
//
MOLECULE: COc1ccc(S(=O)(=O)c2ccc(F)cc2)c(Cn2nc(-c3ccccc3)c(CC(=O)O)c2C)c1
pIC50: 7.44

Lab book: pIC50 of Cc1nn(Cc2ccccc2S(=O)(=O)c2ccccc2)c(C)c1CC(=O)O noted as 7.09

These data points were gathered from ChEMBL document CHEMBL2384997.
